Target: IRF5
Conditions: ASO, KARPAS-229, 4 µM
After the bases stand the sugars from the 5' end (letter, count) and the backbone: PS all phosphorothioate, else s phosphorothioate and o phosphodiester by linkage. Methylation of C is not given here. e = 2'-O-(2-methoxyethyl) (MOE); k = constrained ethyl (cEt); d = 2'-deoxy (DNA)
Reported Property: target mRNA inhibition (%)

> print(dat)
                            residue.sequence       reported.property  unit.spec  assay.result
 1  TCCAATTTTGCATTCC (sugars k3 d9 k3 e1, PS)  target mRNA inhibition          %             7
 2  ACCACTGTGTACCCCA (sugars kkkdddddddddkeke, PS)  target mRNA inhibition          %            39
 3  CTTGGTCTTGACCTCC (sugars k2 d9 e3 k2, PS)  target mRNA inhibition          %            11
 4   TTGAATTTTGTGACTG (sugars k3 d10 k3, PS)  target mRNA inhibition          %            45
 5  AGGAGTGAGACGAGCA (sugars kdddddddddkekeke, PS)  target mRNA inhibition          %             0
 6  TTGTCTAGTGTCATGG (sugars kekdddddddddeekk, PS)  target mRNA inhibition          %            55
 7  CAATGCAACATCCATC (sugars kkddddddddkekekk, PS)  target mRNA inhibition          %             0
 8  TGCACTGACACAGGCG (sugars k2 d8 e4 k2, PS)  target mRNA inhibition          %             0
 9  GGTTCTTGGACTCTCA (sugars kkddddddddkekekk, PS)  target mRNA inhibition          %             0
10  TTGTCTAGTGTCATGG (sugars kkkdddddddddkeke, PS)  target mRNA inhibition          %            39
11  CACTGACACAGGCGGA (sugars kdddddddddkekeke, PS)  target mRNA inhibition          %             0
